This collection of values is drawn from patent US7541367B2.

Biological target: HER2 (Homo sapiens, UniProt P04626)
Construct: GST (Glutathione-S-Transferase) (N); HIS6 (N); thrombin cleavage site (N)
Sequence (P04626 679-1255): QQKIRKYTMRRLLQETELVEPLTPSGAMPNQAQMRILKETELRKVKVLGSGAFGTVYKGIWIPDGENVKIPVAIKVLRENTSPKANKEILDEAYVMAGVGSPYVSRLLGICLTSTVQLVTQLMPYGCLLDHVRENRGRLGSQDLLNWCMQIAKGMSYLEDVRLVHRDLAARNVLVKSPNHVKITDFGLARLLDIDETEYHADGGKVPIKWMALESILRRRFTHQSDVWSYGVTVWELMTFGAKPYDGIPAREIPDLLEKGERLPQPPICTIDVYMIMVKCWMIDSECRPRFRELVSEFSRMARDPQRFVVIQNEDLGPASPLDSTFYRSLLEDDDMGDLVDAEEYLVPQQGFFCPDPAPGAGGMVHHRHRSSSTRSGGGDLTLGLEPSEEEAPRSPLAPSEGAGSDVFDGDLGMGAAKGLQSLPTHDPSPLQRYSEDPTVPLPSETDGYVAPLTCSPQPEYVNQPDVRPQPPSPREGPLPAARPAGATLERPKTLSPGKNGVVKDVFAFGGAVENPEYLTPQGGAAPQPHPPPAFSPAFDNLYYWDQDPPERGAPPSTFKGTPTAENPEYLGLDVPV
Assay: HER2 kinase screening assay (33P-ATP FlashPlate);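 also: Biotin-poly(GT) 4:1 peptide captured on streptavidin FlashPlate, 33P transfer from γ-ATP read by scintillation counting, lower incorporation means inhibition, 1% DMSO final, 100 µL reaction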
Details: GST-HIS6 HER-2 aa 679 to 1255; 10 μM ATP; 1 hr at 30° C
IC50: recorded values

Form field: reported IC50 of NC1CCC(NC(=O)c2cccc3[nH]c(-c4n[nH]c5ncc(-c6cncc7ccccc67)cc45)nc23)CC1 (centres unmarked)
31 µM

New cases:
Form field: reported IC50 of c1cncc(-c2cnc3[nH]nc(-c4nc5cc6c(cc5[nH]4)OCO6)c3c2)c1
> 100 µM

How about this compound: OCCOc1ccc2[nH]c(-c3n[nH]c4ncc(-c5cccnc5)cc34)nc2c1
> 100 µM

How about this compound: O=C(NC1CC1)c1cccc2[nH]c(-c3n[nH]c4ncc(-c5cncc6ccccc56)cc34)nc12
~10 µM

How about this compound: CCCNCc1cncc(-c2cnc3[nH]nc(-c4nc5cc(OC)ccc5[nH]4)c3c2)c1
2.16 µM

How about this compound: COCc1cccc2[nH]c(-c3n[nH]c4ncc(-c5cncc(CNCCO)c5)cc34)nc12
> 10 µM

How about this compound: COc1ccc2[nH]c(-c3n[nH]c4ncc(-c5cncc(CNC(C)C)c5)cc34)nc2c1
10.7 µM

How about this compound: COCc1cccc2[nH]c(-c3n[nH]c4ncc(-c5cn(S(=O)(=O)c6ccccc6)c6ccccc56)cc34)nc12
> 100 µM

How about this compound: COCc1cccc2[nH]c(-c3n[nH]c4ncc(-c5cncc(CNCCN6CCOCC6)c5)cc34)nc12
~100 µM

How about this compound: O=C(NC1CCCC1)c1cccc2[nH]c(-c3n[nH]c4ncc(-c5cncc6ccccc56)cc34)nc12
> 10 µM

How about this compound: COCc1cccc2[nH]c(-c3nn(C)c4ncc(-c5cncc6ccccc56)cc34)nc12
> 100 µM

How about this compound: COCc1cccc2[nH]c(-c3n[nH]c4ncc(-c5cncc(CNC(C)C)c5)cc34)nc12
> 10 µM

How about this compound: O=C(c1cccc2[nH]c(-c3n[nH]c4ncc(-c5cncc6ccccc56)cc34)nc12)N1CCCC1
> 10 µM

How about this compound: c1ccc2c(-c3cnc4[nH]nc(-c5nc6ccccc6[nH]5)c4c3)cncc2c1
0.141 µM

How about this compound: CNCc1cncc(-c2cnc3[nH]nc(-c4nc5ccc(C#N)cc5[nH]4)c3c2)c1
> 10 µM

How about this compound: CCNCc1cncc(-c2cnc3[nH]nc(-c4nc5cc(N6CCN(C)CC6)ccc5[nH]4)c3c2)c1
1.07 µM

How about this compound: COCc1cccc2[nH]c(-c3n[nH]c4ncc(-c5cncc(CO)c5)cc34)nc12
> 100 µM

* * *

Protein target, amino acids: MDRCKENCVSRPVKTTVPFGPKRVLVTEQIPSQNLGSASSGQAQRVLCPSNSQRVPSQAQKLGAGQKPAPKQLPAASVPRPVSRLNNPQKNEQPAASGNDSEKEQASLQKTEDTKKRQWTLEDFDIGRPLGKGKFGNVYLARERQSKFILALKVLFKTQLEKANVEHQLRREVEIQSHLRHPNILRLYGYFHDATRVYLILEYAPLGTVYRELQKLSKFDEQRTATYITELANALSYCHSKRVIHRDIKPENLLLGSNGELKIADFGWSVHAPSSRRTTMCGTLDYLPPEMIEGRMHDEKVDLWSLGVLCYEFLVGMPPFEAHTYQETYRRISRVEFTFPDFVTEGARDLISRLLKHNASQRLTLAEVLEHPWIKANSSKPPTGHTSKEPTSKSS
log10 IC50: recorded values
Hello, just confirming the data are log10 of IC50 with units of µM.

Form field: reported log10 IC50 of CCCNCc1cncc(-c2cnc3[nH]nc(-c4nc5cc(N6CCN(C)CC6)ccc5[nH]4)c3c2)c1
-0.55

How about this compound: COCc1cccc2[nH]c(-c3n[nH]c4ncc(-c5cncc(CN)c5)cc34)nc12
0.68

How about this compound: CCNCc1cncc(-c2cnc3[nH]nc(-c4nc5cc(N6CCN(C)CC6)ccc5[nH]4)c3c2)c1
-0.55

New cases:
Form field: reported log10 IC50 of CCCNCc1cncc(-c2cnc3[nH]nc(-c4nc5c(COC)cccc5[nH]4)c3c2)c1
0.60

How about this compound: CNCc1cncc(-c2cnc3[nH]nc(-c4nc5c(COC)cccc5[nH]4)c3c2)c1C
0.24

How about this compound: COCc1cccc2[nH]c(-c3n[nH]c4ncc(-c5cncc(C=O)c5)cc34)nc12
-0.61

How about this compound: COCc1cccc2[nH]c(-c3n[nH]c4ncc(-c5cncc(CNCCN(C)C)c5)cc34)nc12
0.82

How about this compound: O=C(NC1CC1)c1cccc2[nH]c(-c3n[nH]c4ncc(-c5cncc6ccccc56)cc34)nc12
-1.24
